The measurements presented in this section are drawn from patent US10987324B2.

- procedure-details: Lacosamide plasma pharmacokinetics, ER infusion vs IP bolus in rats (Example 15)
- Type: in vivo
- measurement-context: rat, plasma, intraperitoneal, 122 mg/kg; group 2 (ER profile)
assay-readout: concentration at 18 h

Supply reported concentration at 18 h belonging to this molecule: COC[C@@H](NC(C)=O)C(=O)NCc1ccccc1 [lacosamide] ~19000 ng/mL

----------
- procedure-details: Lacosamide plasma pharmacokinetics, ER infusion vs IP bolus in rats (Example 15)
- Format: in vivo
- measurement-context: rat, plasma, ip, 122 mg/kg; Group 2 (ER), PK satellite rats
assay-readout: Cmax
Note to self: number, then unit, no commentary.

Output measured Cmax for this item: COC[C@@H](NC(C)=O)C(=O)NCc1ccccc1 [lacosamide] 19000 ng/mL

----------
- procedure-details: Lacosamide plasma pharmacokinetics, ER infusion vs IP bolus in rats (Example 15)
- Type: in vivo
- measurement-context: rat, plasma, ip, 19 mg/kg; Group 4 (IR), PK satellite rats
assay-readout: Cmax (ng/mL)
Express your answer in ng/mL, writing the number without its unit.

Answer with the recorded Cmax for the compound listed here: COC[C@@H](NC(C)=O)C(=O)NCc1ccccc1 [lacosamide] 22000
